system: HL-60; experiment: NCI tumour cell line growth inhibition, 48 h
Calls of active or inactive are those of the source. No stated cut-off is given here; in the data, active = GI50 up to about 1.1 µM and inactive = higher.
Answer each item with its documented GI50.

{"compound": "O=C(O)CCC(NC(=O)c1ccc(Oc2nc3ccccc3nc2-c2ccccc2)cc1)C(=O)O (stereo not drawn)", "recorded.value": "> 100 µM (inactive)"}

Below are 2 compounds. Give each one its GI50.
1. CC1=CC(O)CC(C)(C)C1/C=C/C(C)=C/C=C/C(C)=C/C=C/C=C(C)/C=C/C=C(C)/C=C/C1=C(C)CC(O)CC1(C)C (stereo not drawn)
2. Cn1cc2ccccc2c1-c1nc(F)nc(Oc2ccc3c(c2)CC[C@@H]2C3CC[C@@]3(C)C2C[C@H](O)[C@@H]3O)n1 (stereo partly drawn)

Out:
["51.6 µM (inactive)", "22.4 µM (inactive)"]

---

system: CAKI-1; assay: NCI tumour cell line growth inhibition, 48 h
Activity calls are given as the source filed them. No stated cut-off is given here; in the data, active = GI50 up to about 1.1 µM and inactive = higher.
Form entry, call: pick from active, inactive

{"compound": "OCn1nc2c(C3OCCO3)cc3ccccc3n2c1=S", "label.value": "inactive"}
{"compound": "COc1ccc2[nH]cc(CCNC(C)=O)c2c1", "label.value": "inactive"}
{"compound": "CN(C)CCOC1(Cc2ccc(Cl)cc2Cl)CCC(C(C)(C)C)CC1 (stereo unspecified)", "label.value": "inactive"}
{"compound": "COC(=O)C(C(=O)C(=O)Nc1cccc([N+](=O)[O-])c1)c1nc2ccc([N+](=O)[O-])cc2nc1O (stereo unspecified)", "label.value": "inactive"}

Now consider a different compound.
In: Hi, do you know how [O-][S+]1c2ccccc2N=C(c2ccc3ccccc3c2)CC1c1ccccc1F (stereo unspecified) came out in this test?
Out: inactive

---

test system: 786-0; test: NCI tumour cell line growth inhibition, 48 h
The source made the active and inactive calls. Cut-off read from the data, not from the text of the source: active = GI50 up to about 1.1 µM and inactive = higher.
observation.type: GI50

These recorded examples may help you get a feel for the data.
{"compound": "O=C(O)/C(=C/C=C/c1ccccc1)c1csc(-c2nc(/C(=C\\C=C\\c3ccccc3)C(=O)O)cs2)n1", "GI50": "23.2 µM (inactive)"}
{"compound": "COC(=O)C(C(=O)C(=O)Nc1cccc([N+](=O)[O-])c1)c1nc2ccc([N+](=O)[O-])cc2nc1O (stereo unspecified)", "GI50": "> 100 µM (inactive)"}
{"compound": "NC(=O)NNCc1c(-c2ccccc2)no[n+]1[O-]", "GI50": "> 100 µM (inactive)"}

Please give GI50, item by item, for the list that follows.
1. COC(=O)C(NC(=O)OC(C)(C)C)P(=O)(OC)OC (stereo unspecified)
2. COc1cc(/C=C/c2cc(/C=C/c3ccc(O)c(OC)c3)oc(=O)c2)ccc1O
3. O=C(O)C1(c2ccccc2)CCCNCC1 (stereo unspecified)
4. Cn1cccc1-c1ccc(-c2ccc(CO)[se]2)[se]1
5. C[N+](C)(C)/C=N\c1cccc2c1CCCC2
6. COC(=O)C1(Cc2ccccc2)Cc2ccccc2C1O (stereo unspecified)
7. C[C@H]1/C(=C/C(=O)OCCN(C)C)CC[C@H]2[C@H]1C(=O)C[C@H]1C(C)(C)[C@@H](O)CC[C@]21C

Out:
> 100 µM (inactive)
5.62 µM (inactive)
> 100 µM (inactive)
14.2 µM (inactive)
> 100 µM (inactive)
> 100 µM (inactive)
> 100 µM (inactive)

In: Name the reported GI50 value associated with the compound COP(=O)(OC)C(O)/C=C(\Cl)c1ccc(Cl)cc1 (stereo unspecified)
Out: 19.2 µM (inactive)

---

test system: NCI-H522; assay: NCI tumour cell line growth inhibition, 48 h
Calls of active or inactive are those of the source. Rule as the data show it: active = GI50 up to about 1.1 µM and inactive = higher.
Field: GI50. Provide a value for each of the molecules that follow.

Some solved cases for reference:
{"molecule": "COc1c(-c2ccc(F)cc2)oc2cc(O)cc(O)c2c1=O", "study.target": "NCI-H522", "GI50": "20.5 µM (inactive)"}
{"molecule": "COC(=O)CC(C)(N[S+]([O-])c1ccc(C)cc1)c1ccccc1 (stereo unspecified)", "study.target": "NCI-H522", "GI50": "> 100 µM (inactive)"}
{"molecule": "O=[N+]([O-])C1=Cc2c(O)ccc(O)c2C2OC=CC12 (stereo unspecified)", "study.target": "NCI-H522", "GI50": "3.83 µM (inactive)"}
{"molecule": "O=S(=O)(O)c1cc(O)c(/N=N\\C2S(=O)(=O)OCCOS2(=O)=O)c2ccccc12", "study.target": "NCI-H522", "GI50": "> 100 µM (inactive)"}
{"molecule": "O=C1c2ccc3c4ccccc4n(Cc4ccccc4)c3c2C(=O)N1c1ccccc1", "study.target": "NCI-H522", "GI50": "2.62 µM (inactive)"}
{"molecule": "Cc1cc(S(=O)(=O)NC2=NCc3nc4ccccc4n32)c(S)cc1Cl", "study.target": "NCI-H522", "GI50": "34.9 µM (inactive)"}

For each entry beneath this line, provide reported GI50.
1. CCCCCNc1nonc1N
2. COc1cccc(/C=C(/C(=O)O)c2cc(OC)c(OC)c(OC)c2)c1
3. COc1cccc(-c2cc(O)c3ccccc3n2)c1
4. CCOC(=O)C1OC(=O)CC1C1(C(=O)OCC)C=CC(=O)O1 (stereo unspecified)

Out:
1. > 100 µM (inactive)
2. > 100 µM (inactive)
3. 3.06 µM (inactive)
4. > 100 µM (inactive)

In: Reported GI50 for NCI-H522, given O=C1C(NCCc2cc(Br)c(O)c(Br)c2)=CC(=O)c2ncccc21 ?
Out: 3.17 µM (inactive)

---

test system: UACC-257; experiment: NCI tumour cell line growth inhibition, 48 h
Activity calls are given as the source filed them. No stated cut-off is given here; in the data, active = GI50 up to about 1.1 µM and inactive = higher.
Could you please report measured GI50 for the items listed next?

Example compounds with recorded GI50:
{"compound": "COc1cc(C2(C)SCCCS2)c(I)c(OC)c1OC", "GI50": "> 100 µM (inactive)"}
{"compound": "c1ccc2c(c1)c1c(n2CCOCCCN2CCCCC2)CCCC1", "GI50": "16.8 µM (inactive)"}
{"compound": "COc1cccc2c1OC(c1ccc(C#N)cc1)C([N+](=O)[O-])=C2 (stereo not given)", "GI50": "1.38 µM (inactive)"}
{"compound": "CCOC(=O)c1nc2cc(Cl)ccc2[nH]c1=O", "GI50": "> 100 µM (inactive)"}
{"compound": "CC[C@@H]1CC[C@@H]2[C@H](CC[C@]3(C)[C@@H](OS(=O)(=O)c4ccc(C)cc4)CC[C@@H]23)[C@H]1CO", "GI50": "80.2 µM (inactive)"}

Kindly give each listed record's GI50.
1. COc1ccc(-c2cc(=O)c3c(OC)c(OC)c(OC)c(OC)c3o2)c(OC)c1
2. CC(=O)O[C@H]1CC[C@@]2(C)C(=CC[C@@H]3C2CC[C@]2(C)Nc4oncc4CC32)C1 (stereo not given in full)
3. CC(C)CC1c2[nH]c3ccccc3c2C[C@H]2C(=O)NC(COC(C)(C)C)C(=O)N12 (stereo not given in full)

Out:
20 µM (inactive)
31.7 µM (inactive)
19 µM (inactive)

For each entry beneath this line, provide reported GI50.
1. CC(C)(C)CC(C)(C)c1ccc(OCCOCC[N+](C)(C)Cc2ccccc2)cc1 [BENZETHONIUM CHLORIDE]
2. c1ncc(C23C4C5C6C4C2C6C53)[nH]1 (stereo not given)

Out:
1. 1.45 µM (inactive)
2. > 100 µM (inactive)

---

tested on: OVCAR-4; experiment: NCI tumour cell line growth inhibition, 48 h
Calls of active or inactive are those of the source. Rule as the data show it: active = GI50 up to about 1.1 µM and inactive = higher.
Please reply with one of these outcomes: active, inactive

{"compound": "CC[C@@]1(O)C(=O)OCc2c1cc1n(c2=O)Cc2c-1nc1ccc(O)cc1c2CC[Si](C)(C)C", "study.target": "OVCAR-4", "label.value": "active"}

In: Please indicate how the test categorized O=C(O)CC(Sc1ccccc1)c1ccccc1 (stereo not drawn) .
Out: inactive

In: Hey, what did the test say about CC(C)=CCOc1cc(NC(=S)c2ccsc2C)ccc1Cl ?
Out: inactive

In: GET /call?item= CN(C)CCCn1c(-c2ccc(Br)cc2)cs/c1=N\c1ccccc1 returns the recorded outcome of this test.
Out: inactive

In: Test call, this compound: O=C1CCC(=O)N1CNc1ccc2c(c1)S(=O)(=O)c1ccccc1O2
Out: inactive

In: Look up the recorded call for CCC1C(=O)OCc2c1cc1n(c2=O)CCC12OCCO2 (stereo not drawn) in this test.
Out: inactive

In: Please indicate how the test categorized O=C(O)CCC(NC(=O)c1ccc(Oc2nc3ccccc3nc2-c2ccccc2)cc1)C(=O)O (stereo not drawn) .
Out: inactive

In: Can you look up the reported call for O=S(O)CCCSSSCCCS(=O)O for me?
Out: inactive

---

system: HT-29; assay: NCI tumour cell line growth inhibition, 48 h
The source made the active and inactive calls. No stated cut-off is given here; in the data, active = GI50 up to about 1.1 µM and inactive = higher.
observation.type: GI50

Consider the worked cases shown below.
{"compound": "O=C(O)CCC(NC(=O)c1ccc(Oc2nc3ccccc3nc2-c2ccccc2)cc1)C(=O)O (stereo not drawn)", "study.target": "HT-29", "GI50": "> 100 µM (inactive)"}
{"compound": "COC12OC3(C4OC41)C(C(=O)O[C@H]3CO[Si](C)(C)C(C)(C)C)C2C(=O)Oc1ccccc1 (stereo partly drawn)", "study.target": "HT-29", "GI50": "> 100 µM (inactive)"}
{"compound": "CC1=NC(=Cc2ccc(Cl)cc2)C(=O)N1n1c(-c2ccccc2)nc2ccccc2c1=O", "study.target": "HT-29", "GI50": "37 µM (inactive)"}

Count: 4. Required value per item: GI50.
1. CC[C@@H]1CC[C@@H]2[C@H](CC[C@]3(C)[C@@H](OS(=O)(=O)c4ccc(C)cc4)CC[C@@H]23)[C@H]1CO
2. COC(=O)N[C@H](C(=O)O)C(C)O[Si](C)(C)C(C)(C)C (stereo partly drawn)
3. CCOC(CI)O[C@@H]1C=C[C@H](OC(C)=O)C1 (stereo partly drawn)
4. O=C(Nc1ccc(Cl)cc1)NS(=O)(=O)c1coc2cc(F)ccc2c1=O

Out:
1: 27.3 µM (inactive); 2: > 100 µM (inactive); 3: > 100 µM (inactive); 4: > 100 µM (inactive)
